Overview of reported inhibition across a group of molecules:
experimentalSystem: Alkaline phosphatase, tissue-nonspecific isozyme (Homo sapiens)
measurementProtocol: blockers of alkaline phosphatase TNAP catalysis – biochemical, colorimetric, p-nitrophenol readout, primary screen (AID 615);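 note: 0% = DMSO only wells and 100% = 1 mM levamisole wells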
measurementSetup: purified TNAP, pNPP hydrolysis, absorbance 405 nm; at 20 µM; active compounds read high
Fewer than 10 of roughly 21,000 compounds were called active. Not all results are given here.
valueType: inhibition (%)

molecule=CCN(CC)C(=O)CSc1nnc(-c2ccc(S(=O)(=O)NCc3ccccc3Cl)cc2)o1 experimentalsystem="Alkaline phosphatase, tissue-nonspecific isozyme (Homo sapiens)" valuetype=inhibition unitofmeasure=% experimentalresult=3.4
molecule=COCCCn1c2nc3ccccc3nc2c2c(=O)n(Cc3ccc(Cl)cc3)c(C)nc21 experimentalsystem="Alkaline phosphatase, tissue-nonspecific isozyme (Homo sapiens)" valuetype=inhibition unitofmeasure=% experimentalresult=7.2
molecule=COc1ccc2[nH]c3ccc(OC)cc3c2c1 experimentalsystem="Alkaline phosphatase, tissue-nonspecific isozyme (Homo sapiens)" valuetype=inhibition unitofmeasure=% experimentalresult=6.8
molecule=Cc1cccc(OCc2nnc(SCC(=O)N3CCN(C(=O)c4ccco4)CC3)n2C)c1C experimentalsystem="Alkaline phosphatase, tissue-nonspecific isozyme (Homo sapiens)" valuetype=inhibition unitofmeasure=% experimentalresult=0.2
molecule=CCN(Cc1cc2cc(C)ccc2[nH]c1=O)S(=O)(=O)c1ccccc1 experimentalsystem="Alkaline phosphatase, tissue-nonspecific isozyme (Homo sapiens)" valuetype=inhibition unitofmeasure=% experimentalresult=6.4
molecule=O=C(CSc1nnc(Cc2ccccc2)n1-c1ccccc1)N1CCOCC1 experimentalsystem="Alkaline phosphatase, tissue-nonspecific isozyme (Homo sapiens)" valuetype=inhibition unitofmeasure=% experimentalresult=0.4
molecule=COc1c(F)c(F)c(-c2csc(N)n2)c(F)c1F experimentalsystem="Alkaline phosphatase, tissue-nonspecific isozyme (Homo sapiens)" valuetype=inhibition unitofmeasure=% experimentalresult=1
molecule="CCOC(=O)c1cc2occc2n1CC(=O)NC1CCC(C)CC1 (stereo not given)" experimentalsystem="Alkaline phosphatase, tissue-nonspecific isozyme (Homo sapiens)" valuetype=inhibition unitofmeasure=% experimentalresult=5.1
molecule="CSCCC1NC2(C(=O)Nc3ccc(Cl)cc32)[C@@H]2C(=O)N(C3CCCC3)C(=O)[C@H]12 (stereo not given in full)" experimentalsystem="Alkaline phosphatase, tissue-nonspecific isozyme (Homo sapiens)" valuetype=inhibition unitofmeasure=% experimentalresult=7.3
molecule=CC(C)C[C@H](NC(=O)NCCc1ccc(Cl)cc1)C(=O)O experimentalsystem="Alkaline phosphatase, tissue-nonspecific isozyme (Homo sapiens)" valuetype=inhibition unitofmeasure=% experimentalresult=2.2

* * *

experimentalSystem: Alkaline phosphatase, tissue-nonspecific isozyme (Homo sapiens)
measurementProtocol: blockers of alkaline phosphatase TNAP catalysis – biochemical, colorimetric, p-nitrophenol readout, primary screen (AID 615);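 note: 0% = DMSO only wells and 100% = 1 mM levamisole wells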
measurementSetup: purified TNAP, pNPP hydrolysis, absorbance 405 nm; at 20 µM; active compounds read high
Out of some 21,000 compounds screened, fewer than 10 were called active. A selection follows.
Recorded measurements of inhibition, one per entry
valueType: inhibition (%)

compound=CCOC(=O)CSc1nnc(-c2ccco2)n1C experimentalsystem="Alkaline phosphatase, tissue-nonspecific isozyme (Homo sapiens)" unitofmeasure=% experimentalresult=3
compound=O=c1[nH]c(=O)n(Cc2ccco2)c2c1C(C(F)(F)F)(C(F)(F)F)N=C(c1ccco1)N2 experimentalsystem="Alkaline phosphatase, tissue-nonspecific isozyme (Homo sapiens)" unitofmeasure=% experimentalresult=1.6
compound="CC(=O)N(CN1C(=O)C2CC=CCC2C1=O)c1cccc(Cl)c1 (centres undefined)" experimentalsystem="Alkaline phosphatase, tissue-nonspecific isozyme (Homo sapiens)" unitofmeasure=% experimentalresult=7.2
compound=COc1cccc(NC(=O)c2ccccc2SC)c1 experimentalsystem="Alkaline phosphatase, tissue-nonspecific isozyme (Homo sapiens)" unitofmeasure=% experimentalresult=0.3
compound=Cc1cc(C(=O)COC(=O)c2cccs2)c(C)n1-c1c(C)n(C)n(-c2ccccc2)c1=O experimentalsystem="Alkaline phosphatase, tissue-nonspecific isozyme (Homo sapiens)" unitofmeasure=% experimentalresult=4.7
compound="COc1ccc(CNC(=O)c2cc3c(=O)n4ccccc4nc3n(CC3CCCO3)c2=N)cc1 (centres undefined)" experimentalsystem="Alkaline phosphatase, tissue-nonspecific isozyme (Homo sapiens)" unitofmeasure=% experimentalresult=0.4
compound=c1ccc(-n2ncc3c(N4CCCC4)ncnc32)cc1 experimentalsystem="Alkaline phosphatase, tissue-nonspecific isozyme (Homo sapiens)" unitofmeasure=% experimentalresult=4.2
compound=O=C(CSc1nnc(-c2cccs2)n1Cc1ccco1)c1ccc2c(c1)OCO2 experimentalsystem="Alkaline phosphatase, tissue-nonspecific isozyme (Homo sapiens)" unitofmeasure=% experimentalresult=1.9
compound=CC(=O)Cc1nsc(NC(=O)c2ccc(COc3ccc(C)cc3)o2)n1 experimentalsystem="Alkaline phosphatase, tissue-nonspecific isozyme (Homo sapiens)" unitofmeasure=% experimentalresult=1.5
compound="c1ccc2c(NCC3CCCO3)nc(-c3ccncc3)nc2c1 (centres undefined)" experimentalsystem="Alkaline phosphatase, tissue-nonspecific isozyme (Homo sapiens)" unitofmeasure=% experimentalresult=3.1
compound=O=C(Nc1ncccn1)c1cccs1 experimentalsystem="Alkaline phosphatase, tissue-nonspecific isozyme (Homo sapiens)" unitofmeasure=% experimentalresult=3.3
compound=CCn1c(SCC(=O)NCc2ccco2)nnc1-c1ccc(N)cc1 experimentalsystem="Alkaline phosphatase, tissue-nonspecific isozyme (Homo sapiens)" unitofmeasure=% experimentalresult=0.2
compound=Cc1ccc2[nH]c3c(c2c1)CN(C(=O)CN1CCN(c2ccccc2)CC1)CC3 experimentalsystem="Alkaline phosphatase, tissue-nonspecific isozyme (Homo sapiens)" unitofmeasure=% experimentalresult=2.7
compound=CCn1c(Cc2ccccc2)nnc1SCc1nc2ccccc2c(=O)[nH]1 experimentalsystem="Alkaline phosphatase, tissue-nonspecific isozyme (Homo sapiens)" unitofmeasure=% experimentalresult=2.9
compound=Cc1cc(C)nc(SCc2ccccc2C#N)n1 experimentalsystem="Alkaline phosphatase, tissue-nonspecific isozyme (Homo sapiens)" unitofmeasure=% experimentalresult=1.7
compound=CCN1C(=O)/C(=C\N2CCN(c3cccc(Cl)c3)CC2)SC1=S experimentalsystem="Alkaline phosphatase, tissue-nonspecific isozyme (Homo sapiens)" unitofmeasure=% experimentalresult=6.1
compound="O=C(NC1CC2CCCC(C1)N2C(=O)N1CCCCC1)C1CCCCC1 (centres undefined)" experimentalsystem="Alkaline phosphatase, tissue-nonspecific isozyme (Homo sapiens)" unitofmeasure=% experimentalresult=4.8
compound=CN(c1nc2ccccc2n2c(-c3ccco3)nnc12)S(=O)(=O)c1ccccc1 experimentalsystem="Alkaline phosphatase, tissue-nonspecific isozyme (Homo sapiens)" unitofmeasure=% experimentalresult=4.7
compound=CCCc1cc(=O)n2[nH]c(SCc3ccccc3)nc2n1 experimentalsystem="Alkaline phosphatase, tissue-nonspecific isozyme (Homo sapiens)" unitofmeasure=% experimentalresult=4.4
compound="CC1CCCCC1NC(=O)CSc1nnc(N)s1 (centres undefined)" experimentalsystem="Alkaline phosphatase, tissue-nonspecific isozyme (Homo sapiens)" unitofmeasure=% experimentalresult=0
compound=Cc1nc(NCc2ccccc2)c(C(N)=O)c2c1COC(C)(C)C2 experimentalsystem="Alkaline phosphatase, tissue-nonspecific isozyme (Homo sapiens)" unitofmeasure=% experimentalresult=3
compound="CC1CCCN(C(=O)Cn2c(=O)oc3ccccc32)C1 (centres undefined)" experimentalsystem="Alkaline phosphatase, tissue-nonspecific isozyme (Homo sapiens)" unitofmeasure=% experimentalresult=3.7
compound=COC(=O)c1cc(Cl)c(NC(=O)c2ccco2)cc1OC experimentalsystem="Alkaline phosphatase, tissue-nonspecific isozyme (Homo sapiens)" unitofmeasure=% experimentalresult=-4.4
compound="CC(=O)c1cccc(NC(=O)N2CCCC2C(=O)NCCC(C)C)c1 (centres undefined)" experimentalsystem="Alkaline phosphatase, tissue-nonspecific isozyme (Homo sapiens)" unitofmeasure=% experimentalresult=7.2

* * *

experimentalSystem: Alkaline phosphatase, tissue-nonspecific isozyme (Homo sapiens) (UniProt P05186)
Sequence (P05186 whole entry, looked up): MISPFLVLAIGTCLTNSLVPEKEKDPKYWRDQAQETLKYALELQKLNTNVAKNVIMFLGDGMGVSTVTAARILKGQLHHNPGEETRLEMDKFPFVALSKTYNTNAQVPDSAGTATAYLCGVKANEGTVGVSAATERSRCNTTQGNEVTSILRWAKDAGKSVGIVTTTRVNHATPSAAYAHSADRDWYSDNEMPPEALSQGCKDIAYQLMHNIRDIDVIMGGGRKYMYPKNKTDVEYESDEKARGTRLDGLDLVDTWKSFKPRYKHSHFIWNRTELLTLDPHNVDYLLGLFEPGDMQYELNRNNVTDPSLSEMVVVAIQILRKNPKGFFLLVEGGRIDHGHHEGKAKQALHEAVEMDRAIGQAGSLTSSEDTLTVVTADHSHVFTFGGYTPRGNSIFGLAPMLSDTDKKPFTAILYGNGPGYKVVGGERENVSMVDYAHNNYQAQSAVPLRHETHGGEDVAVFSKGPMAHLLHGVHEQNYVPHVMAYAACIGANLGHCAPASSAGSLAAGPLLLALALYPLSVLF
measurementProtocol: blockers of alkaline phosphatase TNAP catalysis – biochemical, colorimetric, p-nitrophenol readout, primary screen (AID 615);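 note: 0% = DMSO only wells and 100% = 1 mM levamisole wells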
measurementSetup: purified TNAP, pNPP hydrolysis, absorbance 405 nm; at 20 µM; active compounds read high
Fewer than 10 of roughly 21,000 compounds were called active. Not all results are given here.
Below: a set of entries, each annotated with reported inhibition.
valueType: inhibition (%)

molecule=CCOC(=O)N1CCN(Cc2oc(CO)cc(=O)c2O)CC1 unitofmeasure=% experimentalresult=4.3
molecule=COc1ccc(NC(=O)CSc2nnc(-c3cccs3)n2Cc2ccco2)cc1OC unitofmeasure=% experimentalresult=3.1
molecule=Cc1ccc(S(=O)(=O)N2CCC(C(=O)OCC(=O)N3CC(=O)Nc4ccccc43)CC2)cc1 unitofmeasure=% experimentalresult=5.7
molecule="CCNC(=O)N1CCNC(=O)C1CC(=O)Nc1ccc(C(=O)OCC)cc1 (stereo unspecified)" unitofmeasure=% experimentalresult=4.4
molecule=N#Cc1nc(-c2ccc(OCc3ccccc3)cc2)oc1NCCCN1CCOCC1 unitofmeasure=% experimentalresult=4
molecule=N#CNC1=NCN(CCc2ccccc2)CN1 unitofmeasure=% experimentalresult=4.9
molecule=c1ccc(-n2ncc(-c3nn[nH]n3)n2)cc1 unitofmeasure=% experimentalresult=1.2
molecule=CCCCC(=O)Nc1ccc2c(c1)OCCO2 unitofmeasure=% experimentalresult=-5.8
molecule="CC1CN(C2CCN(C(=O)COc3ccccc3)CC2)CC(C)O1 (stereo unspecified)" unitofmeasure=% experimentalresult=-2.1
molecule=Cc1ccc(NC(=O)N2CCC(C(=O)NCc3ccc(F)cc3)CC2)cc1 unitofmeasure=% experimentalresult=6.4
molecule=COc1ccc(CCN(C)CCN2C(=O)c3ccccc3C2=O)cc1OC unitofmeasure=% experimentalresult=-0.3

* * *

// reported inhibition per item
experimentalSystem: Alkaline phosphatase, tissue-nonspecific isozyme (Homo sapiens) (UniProt P05186)
measurementProtocol: blockers of alkaline phosphatase TNAP catalysis – biochemical, colorimetric, p-nitrophenol readout, primary screen (AID 615);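 note: 0% = DMSO only wells and 100% = 1 mM levamisole wells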
measurementSetup: purified TNAP, pNPP hydrolysis, absorbance 405 nm; at 20 µM; active compounds read high
The campaign covered roughly 21,000 compounds. Fewer than 10 were called active. The list is a sample of the results.
valueType: inhibition (%)

compound=O=C(c1ccc2c(c1)C(=O)N(c1ccc(Cl)cc1)C2=O)N1CCN(c2ccccn2)CC1 valuetype=inhibition experimentalresult=5.1
compound="O=C(c1cccs1)N1CCCC(c2nc(-c3ccc(F)cc3)no2)C1 (configuration not stated)" valuetype=inhibition experimentalresult=2.9
compound=COc1cc(OC)cc(C(=O)Nc2ncc3c(n2)CC(C)(C)CC3=O)c1 valuetype=inhibition experimentalresult=3.1
compound=CCCCC(=O)N1CC2(C)CN(C(=O)CCCC)CC(C)(C1)C2=O valuetype=inhibition experimentalresult=-3.1
compound=CCCOc1ccc(CN(CCO)CCO)cc1C(=O)OC valuetype=inhibition experimentalresult=8.5
compound="O=C1[C@@H]2C(Cc3ccc(O)cc3)NC3(C(=O)Nc4ccc(F)cc43)[C@@H]2C(=O)N1c1ccc(F)cc1 (some centres not stated)" valuetype=inhibition experimentalresult=1.7
compound=CCn1c(SCC(=O)c2ccc(Cl)s2)nnc1-c1cccs1 valuetype=inhibition experimentalresult=3.7
compound=O=C(CCCOc1ccccc1)Nc1cccc(C(=O)O)c1 valuetype=inhibition experimentalresult=7.6
compound=COc1ccc(-c2c3c(=O)n(C)c(=O)n(C)c3cn2NC(C)=O)cc1 valuetype=inhibition experimentalresult=3.2
compound=CCc1nnc(NC(=O)c2c(O)c3c([nH]c2=O)CCCC3)s1 valuetype=inhibition experimentalresult=6.2
compound=CCc1cc2c(=O)c(-c3ccon3)c(N)oc2cc1OC valuetype=inhibition experimentalresult=5.4
compound=Cc1ccccc1C(=O)Nc1cccc(-c2nnc(SCC(=O)O)n2C)c1 valuetype=inhibition experimentalresult=1.1
compound=COC(=O)c1cc(NC(=O)CN2CCC(C(N)=O)(N3CCCCC3)CC2)cc(C(=O)OC)c1 valuetype=inhibition experimentalresult=-6.8
compound="O=C(O)C1CCCN1S(=O)(=O)c1ccc2c(c1)CCC2 (configuration not stated)" valuetype=inhibition experimentalresult=0.7
compound="COc1ccc(/C(O)=C2/C(=O)C(=O)N(CCCN(C)C)C2c2ccccc2)cc1OC (configuration not stated)" valuetype=inhibition experimentalresult=2.9
compound="CC(C)OC(=O)C(C#N)c1nc2ccccc2nc1N1CCN(Cc2ccc3c(c2)OCO3)CC1 (configuration not stated)" valuetype=inhibition experimentalresult=0
compound=Cc1ccnc(SCCn2c(Br)nc3c2c(=O)[nH]c(=O)n3C)n1 valuetype=inhibition experimentalresult=3
compound=Cc1ccc(-c2c3c(=O)n(C)c(=O)n(C)c3cn2-c2ccccc2O)cc1 valuetype=inhibition experimentalresult=1.8
compound=Cc1occc1C(=O)Nc1cccc(Cn2cccn2)c1 valuetype=inhibition experimentalresult=-2.4
compound=Cc1nnc(N(Cc2ccco2)C(=O)c2ccno2)s1 valuetype=inhibition experimentalresult=1.8
compound=CCc1c(C)sc(NC(=O)OC)c1C(=O)N1CCOCC1 valuetype=inhibition experimentalresult=4.1
compound=CCOC(=O)c1sc(/N=C/Nc2nc(C)c(C(=O)OCC)s2)nc1C valuetype=inhibition experimentalresult=0
